Experiment: qHTS Assay to Find Inhibitors of Chronic Active B-Cell Receptor Signaling: Hit Validation in Primary Screen; note: nearly all actives have a fitted effect of over 75% in size
Details: ABC-DLBCL IkB-luc/CBR ratio luminescence, 4 h; series mostly up to 46.1 µM
Screen size: about 1,200 compounds; about 480 (40%) were called active. Not shown: some 29% with an inconclusive outcome. Calls come from the whole dose curve; as a rule, active = well fitted inhibition curve with a large enough effect; inconclusive = small, poorly fitted or top-dose-only effect; inactive = no such curve, though single readings can be large or run the other way. The list shows a part of the results.
// one of y for active, n for inactive, no free text

Recorded test call requested for COc1ccc(C=C2C(=O)N(C)C(=O)N(C)C2=O)cc1COc1ccc(NC(C)=O)cc1 n

Hello, I am checking results. What call was entered for CC[C@]12CC[C@H](O)CC1=CCC1C2CC[C@]2(C)C(=O)CCC12 (some centres undefined) ? n

Please share the test call associated with CCCCOCCCn1c(N)c(C(=O)OCCOC)c2nc3ccccc3nc21 . n

Per the records of this test, what outcome belongs to CN(C)C(=S)SSC(=S)N(C)C ? y

Just curious, what result did COc1cc(C2c3cc4c(cc3CC3COC(=O)C32)OCO4)cc(OC)c1OC (centres undefined) get here? n

Entry COc1cc([C@@H]2c3cc4c(cc3[C@H](O)[C@H]3COC(=O)[C@H]23)OCO4)cc(OC)c1OC : call = ? y

Please indicate how the test categorized CCNC(=O)[C@H]1O[C@@H](n2cnc3c(N)ncnc32)[C@H](O)[C@@H]1O . y

Any idea what this test logged for O=c1c2ccccc2nc(/C=C/c2ccc([N+](=O)[O-])o2)n1-c1ccc(O)cc1 ? y

Could you kindly confirm the outcome this assay logged for C=CC[C@@H](CC/C=C/C=C/CC/C=C\[C@@H]1CSC([C@@H]2C[C@@H]2C)=N1)OC ? y
